target: UniProtKB O15164; assay: Binding affinity to human partial length TRIM24 expressed in bacterial expression system by BROMOscan assay
Sequence (O15164 whole entry): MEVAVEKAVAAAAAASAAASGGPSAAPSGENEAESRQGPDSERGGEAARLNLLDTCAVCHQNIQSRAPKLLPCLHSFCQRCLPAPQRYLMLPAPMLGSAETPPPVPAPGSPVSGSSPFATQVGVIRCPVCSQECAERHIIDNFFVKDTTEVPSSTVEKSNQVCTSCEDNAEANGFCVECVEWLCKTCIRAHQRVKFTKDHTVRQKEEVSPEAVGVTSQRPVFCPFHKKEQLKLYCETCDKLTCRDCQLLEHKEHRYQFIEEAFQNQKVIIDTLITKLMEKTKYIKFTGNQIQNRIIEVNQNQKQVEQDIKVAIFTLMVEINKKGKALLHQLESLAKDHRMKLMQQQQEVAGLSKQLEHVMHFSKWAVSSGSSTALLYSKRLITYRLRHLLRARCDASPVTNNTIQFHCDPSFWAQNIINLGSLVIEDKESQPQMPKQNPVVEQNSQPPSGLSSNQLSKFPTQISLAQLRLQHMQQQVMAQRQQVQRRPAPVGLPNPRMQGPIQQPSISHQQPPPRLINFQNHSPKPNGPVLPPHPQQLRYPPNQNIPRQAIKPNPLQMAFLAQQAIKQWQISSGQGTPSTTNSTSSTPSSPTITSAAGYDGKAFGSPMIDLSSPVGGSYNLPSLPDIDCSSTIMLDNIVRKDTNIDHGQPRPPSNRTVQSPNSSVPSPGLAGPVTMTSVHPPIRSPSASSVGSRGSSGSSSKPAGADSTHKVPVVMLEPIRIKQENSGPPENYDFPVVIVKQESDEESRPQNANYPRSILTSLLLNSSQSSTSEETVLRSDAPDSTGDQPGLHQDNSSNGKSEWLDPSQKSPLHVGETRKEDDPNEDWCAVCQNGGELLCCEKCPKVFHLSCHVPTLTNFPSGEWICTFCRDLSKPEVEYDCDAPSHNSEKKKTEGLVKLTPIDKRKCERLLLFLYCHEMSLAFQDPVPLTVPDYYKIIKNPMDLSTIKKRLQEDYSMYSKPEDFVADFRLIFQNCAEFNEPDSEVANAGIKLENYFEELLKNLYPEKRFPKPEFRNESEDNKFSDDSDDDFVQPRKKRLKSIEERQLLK
ASSAY_METRIC: Kd

[Q] I would be grateful if you could share the reported Kd for `COc1cc2c(cc1-c1c(C)noc1C)[nH]c1nc(C)nc(-c3ccnc4ccccc34)c12` .
[A] > 4 µM

====

biological target: Bromodomain-containing protein 4 (Homo sapiens); assay: Inhibition of FAM-labeled ZBA248 binding to recombinant human N-terminal His6-tagged BRD4 bromodomain 2 (333 to 460 residues) expressed in Rosetta2 DE3 cells after 30 mins by Flourescence polarization assay; format: biochemical
For each record, write down the corresponding IC50.
Units required after the number.

[Q] What value of IC50 has been reported for the following compound? `COc1cc2c(cc1-c1c(C)noc1C)[nH]c1ncnc(-c3c(C)[nH]c4ccccc34)c12`
[A] 1.1 nM

[Q] Record: `COc1cc2c(cc1-c1c(C)noc1C)[nH]c1nc(C)nc(-c3cccc4ncccc34)c12`
[A] 15.5 nM

[Q] Next up: `COc1cc2c(cc1-c1c(C)noc1C)[nH]c1ncnc(-c3cc[nH]c3)c12`
[A] 108 nM

[Q] Another compound: `COc1cc2c(cc1-c1c(C)noc1C)[nH]c1ncnc(-c3c(C)nn(C)c3C)c12`
[A] 89.7 nM

[Q] Now consider `COc1cc2c(cc1-c1c(C)noc1C)[nH]c1nc(C)nc(-c3cccc4ccncc34)c12` and answer again.
[A] 167 nM

[Q] Proceed to `COc1cc2c(cc1-c1c(C)noc1C)[nH]c1ncnc(-c3nn(C)c4ccccc34)c12`
[A] 74.9 nM

[Q] Then this compound: `COc1cc2c(cc1-c1c(C)noc1C)[nH]c1nc(C)nc(-c3cc(C)nc4ccccc34)c12`
[A] 5.2 nM

[Q] Now the same for `COc1cc2c(cc1-c1c(C)noc1C)[nH]c1ncnc(-c3c(C)n[nH]c3C)c12`
[A] 63.5 nM

[Q] What do you get for `COc1cc2c(cc1-c1c(C)noc1C)[nH]c1ncnc(-c3c[nH]c4cnccc34)c12` ?
[A] 22.7 nM

====

experiment: Clearance in Sprague-Dawley rat at 5 mg/kg, iv by LC/MS method; format: ADME, organism-based; details: in vivo
ASSAY_METRIC: clearance
Phrase the answer as number then unit, nothing more needed.

[Q] I have this compound here, `COc1cc2c(cc1-c1c(C)noc1C)[nH]c1nc(C)nc(-c3ccnc4ccccc34)c12` , and I need its recorded clearance.
[A] 13.2 mL/min/kg

====

biological target: Nucleosome-remodeling factor subunit BPTF (Homo sapiens, UniProt Q12830); experiment: Binding affinity to human partial length FALZ (S2791 to H2911 residues) expressed in bacterial expression system by BROMOscan assay
ASSAY_METRIC: Kd

[Q] Which Kd value belongs to `COc1cc2c(cc1-c1c(C)noc1C)[nH]c1nc(C)nc(-c3ccnc4ccccc34)c12` ?
[A] > 4 µM

====

molecular target: SWI/SNF-related matrix-associated actin-dependent regulator of chromatin subfamily A member 4 (Homo sapiens, UniProt P51532); experiment: Binding affinity to human partial length SMARCA4 (A1448 to S1575 residues) expressed in bacterial expression system by BROMOscan assay
Sequence (P51532 whole entry, the tested form may be a part): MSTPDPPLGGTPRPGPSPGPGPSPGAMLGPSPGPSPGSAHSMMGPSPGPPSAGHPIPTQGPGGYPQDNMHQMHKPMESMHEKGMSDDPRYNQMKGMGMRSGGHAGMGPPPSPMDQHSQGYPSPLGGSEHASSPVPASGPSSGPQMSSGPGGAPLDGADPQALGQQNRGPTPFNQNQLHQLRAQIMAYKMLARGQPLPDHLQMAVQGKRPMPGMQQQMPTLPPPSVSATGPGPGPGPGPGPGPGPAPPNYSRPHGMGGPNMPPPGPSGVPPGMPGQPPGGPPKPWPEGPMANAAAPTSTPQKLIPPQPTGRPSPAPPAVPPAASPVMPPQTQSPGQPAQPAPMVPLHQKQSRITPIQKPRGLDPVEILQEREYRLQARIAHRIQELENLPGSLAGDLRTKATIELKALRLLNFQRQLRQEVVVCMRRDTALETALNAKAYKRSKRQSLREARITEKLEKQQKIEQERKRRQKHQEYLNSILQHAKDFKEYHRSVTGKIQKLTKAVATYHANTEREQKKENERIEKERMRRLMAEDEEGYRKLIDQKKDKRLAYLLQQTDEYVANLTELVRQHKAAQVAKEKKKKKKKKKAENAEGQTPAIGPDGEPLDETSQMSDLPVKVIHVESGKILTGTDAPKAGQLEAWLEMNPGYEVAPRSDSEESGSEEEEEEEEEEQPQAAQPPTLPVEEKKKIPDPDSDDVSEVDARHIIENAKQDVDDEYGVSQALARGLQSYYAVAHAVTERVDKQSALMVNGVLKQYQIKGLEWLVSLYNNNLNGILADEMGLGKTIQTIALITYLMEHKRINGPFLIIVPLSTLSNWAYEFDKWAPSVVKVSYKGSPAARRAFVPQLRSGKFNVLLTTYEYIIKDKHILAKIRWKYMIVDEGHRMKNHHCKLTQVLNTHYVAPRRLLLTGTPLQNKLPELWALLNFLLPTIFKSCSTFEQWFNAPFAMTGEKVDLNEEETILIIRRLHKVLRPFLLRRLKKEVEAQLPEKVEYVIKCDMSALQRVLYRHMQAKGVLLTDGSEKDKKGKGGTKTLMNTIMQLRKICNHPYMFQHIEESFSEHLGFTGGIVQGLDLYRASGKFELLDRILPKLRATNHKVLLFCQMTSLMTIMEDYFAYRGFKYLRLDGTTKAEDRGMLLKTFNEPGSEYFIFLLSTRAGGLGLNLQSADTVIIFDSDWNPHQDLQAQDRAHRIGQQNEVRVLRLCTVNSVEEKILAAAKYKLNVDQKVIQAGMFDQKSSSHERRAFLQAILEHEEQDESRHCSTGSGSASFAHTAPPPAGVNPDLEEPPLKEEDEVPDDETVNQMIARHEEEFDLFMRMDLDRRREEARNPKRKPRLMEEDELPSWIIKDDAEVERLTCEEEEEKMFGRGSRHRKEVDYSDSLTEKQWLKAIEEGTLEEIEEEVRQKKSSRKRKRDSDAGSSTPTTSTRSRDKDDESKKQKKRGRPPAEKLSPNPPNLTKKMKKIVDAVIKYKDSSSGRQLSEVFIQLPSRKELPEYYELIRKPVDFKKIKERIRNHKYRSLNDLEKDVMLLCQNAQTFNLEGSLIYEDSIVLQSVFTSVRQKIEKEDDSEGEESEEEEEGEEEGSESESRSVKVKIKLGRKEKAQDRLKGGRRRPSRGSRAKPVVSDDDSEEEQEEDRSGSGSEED
pKd: −log10 of the molar value.
ASSAY_METRIC: pKd

[Q] Which value of pKd has been reported for `COc1cc2c(cc1-c1c(C)noc1C)[nH]c1nc(C)nc(-c3ccnc4ccccc34)c12` in the records?
[A] < 5.40

====

system: HCC1143; experiment: Cytotoxicity against human HCC1143 cells assessed as cell growth inhibition after 4 days by WST-8 assay; format: functional, cell-based; details: HCC1143, 96 h
ASSAY_METRIC: IC50

[Q] Dear colleague, I am looking for the recorded IC50 of the following compound: `COc1cc2c(cc1-c1c(C)noc1C)[nH]c1nc(C)nc(-c3ccnc4ccccc34)c12`
[A] > 2 µM

====

molecular target: Bromodomain and WD repeat-containing protein 1 (Homo sapiens, UniProt Q9NSI6); test: Binding affinity to human partial length WDR9 bromodomain 2 (A1310 to E1430 residues) expressed in bacterial expression system by BROMOscan assay
Sequence (Q9NSI6 whole entry, the tested form may be a part): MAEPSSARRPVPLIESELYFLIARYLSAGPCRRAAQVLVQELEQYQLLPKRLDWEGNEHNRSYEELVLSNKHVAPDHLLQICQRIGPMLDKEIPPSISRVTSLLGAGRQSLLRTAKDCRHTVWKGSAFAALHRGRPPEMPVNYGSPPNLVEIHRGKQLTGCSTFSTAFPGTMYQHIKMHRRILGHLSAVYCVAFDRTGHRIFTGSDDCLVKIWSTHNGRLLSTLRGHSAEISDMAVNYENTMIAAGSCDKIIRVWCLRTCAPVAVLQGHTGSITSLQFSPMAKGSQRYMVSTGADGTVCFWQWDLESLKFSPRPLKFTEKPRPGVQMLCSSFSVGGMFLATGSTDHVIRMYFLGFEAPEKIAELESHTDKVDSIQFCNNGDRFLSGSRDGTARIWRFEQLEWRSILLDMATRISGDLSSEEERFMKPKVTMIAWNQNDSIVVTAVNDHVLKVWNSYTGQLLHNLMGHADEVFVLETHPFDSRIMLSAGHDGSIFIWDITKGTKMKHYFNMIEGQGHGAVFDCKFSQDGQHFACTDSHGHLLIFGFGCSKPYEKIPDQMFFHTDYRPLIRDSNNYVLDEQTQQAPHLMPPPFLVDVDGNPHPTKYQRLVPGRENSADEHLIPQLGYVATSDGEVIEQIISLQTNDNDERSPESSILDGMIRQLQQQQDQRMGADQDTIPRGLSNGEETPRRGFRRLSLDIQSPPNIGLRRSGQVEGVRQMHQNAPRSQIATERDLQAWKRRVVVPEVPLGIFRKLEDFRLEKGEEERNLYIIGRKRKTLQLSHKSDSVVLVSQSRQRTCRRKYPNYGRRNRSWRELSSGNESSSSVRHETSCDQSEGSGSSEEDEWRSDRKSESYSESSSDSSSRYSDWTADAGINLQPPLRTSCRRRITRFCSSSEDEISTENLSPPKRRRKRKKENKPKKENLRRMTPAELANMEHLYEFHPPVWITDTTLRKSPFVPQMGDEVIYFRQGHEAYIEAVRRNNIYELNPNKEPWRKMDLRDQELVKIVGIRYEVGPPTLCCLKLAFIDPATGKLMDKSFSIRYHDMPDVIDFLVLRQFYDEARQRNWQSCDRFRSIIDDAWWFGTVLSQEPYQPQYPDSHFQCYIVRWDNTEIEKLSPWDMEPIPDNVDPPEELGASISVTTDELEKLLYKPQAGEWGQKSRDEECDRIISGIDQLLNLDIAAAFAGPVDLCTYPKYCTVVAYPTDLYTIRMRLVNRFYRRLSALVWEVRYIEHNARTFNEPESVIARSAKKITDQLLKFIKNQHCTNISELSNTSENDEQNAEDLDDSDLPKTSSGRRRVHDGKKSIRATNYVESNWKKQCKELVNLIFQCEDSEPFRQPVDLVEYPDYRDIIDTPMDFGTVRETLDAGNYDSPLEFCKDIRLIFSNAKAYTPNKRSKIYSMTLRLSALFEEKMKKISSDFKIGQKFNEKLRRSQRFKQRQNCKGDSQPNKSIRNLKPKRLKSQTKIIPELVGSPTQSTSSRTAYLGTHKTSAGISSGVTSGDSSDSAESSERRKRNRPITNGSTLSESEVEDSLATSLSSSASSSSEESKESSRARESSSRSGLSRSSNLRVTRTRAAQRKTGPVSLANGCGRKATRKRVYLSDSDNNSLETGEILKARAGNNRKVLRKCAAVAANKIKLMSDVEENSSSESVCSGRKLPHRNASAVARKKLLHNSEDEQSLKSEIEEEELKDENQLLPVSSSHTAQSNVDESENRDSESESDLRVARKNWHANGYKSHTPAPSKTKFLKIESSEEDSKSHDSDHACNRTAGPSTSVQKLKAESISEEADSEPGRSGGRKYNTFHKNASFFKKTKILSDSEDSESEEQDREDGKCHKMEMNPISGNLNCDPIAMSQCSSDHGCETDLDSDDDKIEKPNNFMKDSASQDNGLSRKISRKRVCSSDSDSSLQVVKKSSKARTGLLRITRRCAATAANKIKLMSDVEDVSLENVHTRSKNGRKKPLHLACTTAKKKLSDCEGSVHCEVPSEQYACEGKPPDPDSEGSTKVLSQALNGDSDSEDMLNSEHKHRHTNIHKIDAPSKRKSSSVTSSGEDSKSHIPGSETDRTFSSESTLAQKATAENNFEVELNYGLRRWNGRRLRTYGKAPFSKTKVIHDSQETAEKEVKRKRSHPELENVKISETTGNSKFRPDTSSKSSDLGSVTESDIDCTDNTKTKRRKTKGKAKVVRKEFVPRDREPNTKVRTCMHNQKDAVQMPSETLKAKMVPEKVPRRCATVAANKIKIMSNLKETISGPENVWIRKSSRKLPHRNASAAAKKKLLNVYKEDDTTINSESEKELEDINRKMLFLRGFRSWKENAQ
pKd: −log10 of the molar value.
ASSAY_METRIC: pKd

[Q] Give pKd (Bromodomain and WD repeat-containing protein 1 (Homo sapiens, UniProt Q9NSI6)) of the following compound: `COc1cc2c(cc1-c1c(C)noc1C)[nH]c1nc(C)nc(-c3ccnc4ccccc34)c12`
[A] < 5.40

====

target: Bromodomain-containing protein 9 (Homo sapiens); assay: Binding affinity to human partial length BRD9 (R130 to V259 residues) expressed in bacterial expression system by BROMOscan assay
pKd: −log10 of the molar value.
ASSAY_METRIC: pKd

[Q] # input compound: `COc1cc2c(cc1-c1c(C)noc1C)[nH]c1nc(C)nc(-c3ccnc4ccccc34)c12` ; wanted: its pKd
[A] < 5.40

====

molecular target: ATPase family AAA domain-containing protein 2B (Homo sapiens); assay: Binding affinity to human partial length ATAD2B (Q955 to R1082 residues) expressed in bacterial expression system by BROMOscan assay
pKd: −log10 of the molar value.
ASSAY_METRIC: pKd

[Q] Need pKd, item `COc1cc2c(cc1-c1c(C)noc1C)[nH]c1nc(C)nc(-c3ccnc4ccccc34)c12`
[A] < 5.40

====

experiment: Half life in CD1 mouse liver microsomes at 1 uM by LC/MS method; format: ADME, microsome
ASSAY_METRIC: t1/2

[Q] Need t1/2 of `COc1cc2c(cc1-c1c(C)noc1C)[nH]c1ncnc(-c3c(C)[nH]c4ccccc34)c12` , thanks.
[A] 0.067 h

[Q] Ok, now `COc1cc2c(cc1-c1c(C)noc1C)[nH]c1nc(C)nc(-c3ccnc4ccccc34)c12`
[A] > 1 h

[Q] Lookup `COc1cc2c(cc1-c1c(C)noc1C)[nH]c1nc(C)nc(-c3c(C)[nH]c4ccccc34)c12`
[A] > 1 h

[Q] // same read-out, input: `COc1cc2c(cc1-c1c(C)noc1C)[nH]c1nc(C)nc(-c3cc(C)nc4ccccc34)c12`
[A] > 1 h

====

target: Bromodomain-containing protein 4 (Homo sapiens, UniProt O60885); assay: Inhibition of FAM-labeled ZBA248 binding to recombinant human N-terminal His6-tagged BRD4 bromodomain 2 (333 to 460 residues) expressed in Rosetta2 DE3 cells after 30 mins by Flourescence polarization assay; format: biochemical
Hi there, I'd appreciate the recorded pKi for every entry that follows.
As a rule, pKi stands for the negative log10 of the concentration, concentration in M.

[Q] pKi lookup needed for `COc1cc2c(cc1-c1c(C)noc1C)[nH]c1nc(C)nc(-c3cc(C)nc4ccccc34)c12` , thanks.
[A] 8.80

[Q] Now give it for `COc1cc2c(cc1-c1c(C)noc1C)[nH]c1ncnc(N[C@H](C)c3ccccn3)c12` too.
[A] 7.98

[Q] `COc1cc2c(cc1-c1c(C)noc1C)[nH]c1ncnc(-n3ccnc3)c12` ?
[A] 6.47

[Q] Lookup `COc1cc2c(cc1-c1c(C)noc1C)[nH]c1ncnc(Cl)c12`
[A] 6.32

[Q] And `COc1cc2c(cc1-c1c(C)noc1C)[nH]c1nc(C)nc(-c3cccc4cccnc34)c12` ?
[A] 7.24

====

target: Bromodomain adjacent to zinc finger domain protein 2A (Homo sapiens); assay: Binding affinity to human partial length BAZ2A (M1792 to L1905 residues) expressed in bacterial expression system by BROMOscan assay
pKd: −log10 of the molar value.
ASSAY_METRIC: pKd

[Q] Item under review: `COc1cc2c(cc1-c1c(C)noc1C)[nH]c1nc(C)nc(-c3ccnc4ccccc34)c12` . Reported pKd?
[A] < 5.40

====

Provide the recorded pIC50 for the entries that follow.
tested on: MV4-11; assay: Growth inhibition of human MV4-11 cells after 4 days by WST-8 assay; type: functional, cell-based; settings: MV4-11, 96 h
Units for pIC50: none; it is -log10 of a concentration expressed in mol/L.

[Q] Given the compound `COc1cc2c(cc1-c1c(C)noc1C)[nH]c1nc(C)nc(-c3cncc4ccccc34)c12` , what is its reported pIC50?
[A] 7.33

[Q] Record: `COc1cc2c(cc1-c1c(C)noc1C)[nH]c1ncnc(-c3c(C)n[nH]c3C)c12`
[A] 7.00

[Q] Do the same for `COc1cc2c(cc1-c1c(C)noc1C)[nH]c1ncnc(-c3c(C4CC4)n[nH]c3C)c12` please
[A] 8.22

[Q] Next entry: `COc1cc2c(cc1-c1c(C)noc1C)[nH]c1nc(C)nc(-c3cccc4ncccc34)c12`
[A] 7.55

[Q] Further, for `COc1cc2c(cc1-c1c(C)noc1C)[nH]c1ncnc(-n3cnc4ccccc43)c12` ?
[A] 7.82

[Q] Proceed to `COc1cc2c(cc1-c1c(C)noc1C)[nH]c1ncnc(-c3c[nH]c4ccccc34)c12`
[A] 7.24

[Q] And `COc1cc2c(cc1-c1c(C)noc1C)[nH]c1ncnc(-c3c(C)nn(C)c3C)c12` ?
[A] 7.02

[Q] Same for `COc1cc2c(cc1-c1c(C)noc1C)[nH]c1ncnc(-c3c(C)noc3C)c12`
[A] 6.74

[Q] Quick one: `COc1cc2c(cc1-c1c(C)noc1C)[nH]c1ncnc(-c3cc[nH]c3)c12`
[A] 6.60

[Q] And then `COc1cc2c(cc1-c1c(C)noc1C)[nH]c1ncnc(-c3ccoc3)c12` , what is it?
[A] 5.54

[Q] For `COc1cc2c(cc1-c1c(C)noc1C)[nH]c1ncnc(-c3c[nH]c4cnccc34)c12` then?
[A] 6.72

[Q] Note, next up: `COc1cc2c(cc1-c1c(C)noc1C)[nH]c1nc(C)nc(-c3cccc4cccnc34)c12`
[A] 6.48

[Q] Try this compound next: `COc1cc2c(cc1-c1c(C)noc1C)[nH]c1ncnc(-c3c(C)oc4ccccc34)c12`
[A] 7.54

[Q] Query `COc1cc2c(cc1-c1c(C)noc1C)[nH]c1ncnc(-c3c(C)[nH]c4cnccc34)c12` next
[A] 7.89

[Q] Next compound up: `COc1cc2c(cc1-c1c(C)noc1C)[nH]c1nc(C)nc(-c3cc(C(F)(F)F)nc4ccccc34)c12`
[A] 7.11

[Q] `COc1cc2c(cc1-c1c(C)noc1C)[nH]c1ncnc(-c3c(C)[nH]c4ccccc34)c12` , same question.
[A] 8.18

[Q] Same thing, different compound: `COc1cc2c(cc1-c1c(C)noc1C)[nH]c1nc(C)nc(-c3cnc4ccccc4c3)c12`
[A] 6.37

[Q] # iterate: `COc1cc2c(cc1-c1c(C)noc1C)[nH]c1nc(C)nc(-c3c(C)[nH]c4ccccc34)c12`
[A] 8.70

[Q] # iterate: `COc1cc2c(cc1-c1c(C)noc1C)[nH]c1nc(C)nc(-c3cc(C)nc4ccccc34)c12`
[A] 7.77

[Q] `COc1cc(-c2nc(C)nc3[nH]c4cc(-c5c(C)noc5C)c(OC)cc4c23)c2ccccc2n1` , same question.
[A] 7.16

[Q] Please answer likewise for `COc1cc2c(cc1-c1c(C)noc1C)[nH]c1nc(C)nc(-c3cccc4cnccc34)c12`
[A] 6.53

[Q] Try this compound too: `COc1cc2c(cc1-c1c(C)noc1C)[nH]c1ncnc(-c3cnn4ccccc34)c12`
[A] 7.89

[Q] Also, `COc1cc2c(cc1-c1c(C)noc1C)[nH]c1ncnc(-n3ccnc3)c12` please.
[A] 5.97
